# Target desc: EPHB1 (UniProt P54762)
# Sequence (P54762 whole entry, looked up): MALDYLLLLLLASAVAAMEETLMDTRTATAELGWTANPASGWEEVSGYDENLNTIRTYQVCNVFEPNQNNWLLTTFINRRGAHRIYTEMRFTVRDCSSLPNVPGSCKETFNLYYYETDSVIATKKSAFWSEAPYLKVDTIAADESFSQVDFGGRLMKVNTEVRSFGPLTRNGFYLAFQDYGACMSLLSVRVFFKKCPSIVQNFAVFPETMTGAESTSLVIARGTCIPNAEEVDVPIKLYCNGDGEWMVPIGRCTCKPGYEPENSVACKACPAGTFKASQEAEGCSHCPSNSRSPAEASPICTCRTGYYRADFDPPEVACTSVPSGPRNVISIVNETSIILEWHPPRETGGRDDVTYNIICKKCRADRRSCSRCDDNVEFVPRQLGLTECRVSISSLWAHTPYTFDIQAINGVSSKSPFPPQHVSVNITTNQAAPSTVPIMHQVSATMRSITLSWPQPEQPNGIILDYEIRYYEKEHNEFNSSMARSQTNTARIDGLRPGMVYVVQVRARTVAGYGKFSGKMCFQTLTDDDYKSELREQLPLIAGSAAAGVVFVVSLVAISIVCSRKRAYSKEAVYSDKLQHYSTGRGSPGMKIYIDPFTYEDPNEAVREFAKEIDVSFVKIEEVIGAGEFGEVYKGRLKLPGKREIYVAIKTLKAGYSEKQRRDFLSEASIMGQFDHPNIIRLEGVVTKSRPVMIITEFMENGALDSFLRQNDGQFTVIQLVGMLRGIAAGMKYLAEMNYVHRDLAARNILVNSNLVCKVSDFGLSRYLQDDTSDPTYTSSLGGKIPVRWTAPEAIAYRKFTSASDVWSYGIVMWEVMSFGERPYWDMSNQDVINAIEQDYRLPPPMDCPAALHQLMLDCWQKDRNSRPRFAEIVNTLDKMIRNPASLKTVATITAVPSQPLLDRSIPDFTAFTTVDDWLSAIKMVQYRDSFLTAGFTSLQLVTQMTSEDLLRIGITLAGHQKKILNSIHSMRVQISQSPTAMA
# Assay protocol: phosphorylation enrichment, bacterial display (enrichment ratio); higher = better substrate or ligand; peptides without Tyr show the background;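 further: 11-residue human phosphosite peptides and single-mutation variants displayed on the E. coli surface, counted by deep sequencing, each peptide's frequency after selection divided by its frequency in the unselected input library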;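 further: frequency after pTyr selection over input frequency; kinase dosed for 20-30% of maximal phosphorylation in three min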
Observable: phosphorylation enrichment
Please reply with the number alone, leaving off any unit.

The sequence MHYSNYVSKGS [PDGFRA_Y849_D846Y] showed phosphorylation enrichment equal to 0.412

Lookup result for NFRPGYNNFFN [USH2A_Y467_YF] ; measured phosphorylation enrichment: 0.354

Memo: TVHCDYLNISH [TAF1L_Y1385_P1389S] , reported phosphorylation enrichment: 1.55

Entry MFRVQYNSSVD [LRFN1_Y458_Q455R_YF] , phosphorylation enrichment reported as 0.49

Given item RFGKVYKAHLF [ROR2_Y488_G490A] , the value recorded as its phosphorylation enrichment is 0.476

The sequence identified as IPTPAYQSSPA [PDCD6IP_Y727] registered its phosphorylation enrichment at 0.452

Record KWTVDYLSQVG [TYW5_Y48] , field phosphorylation enrichment: 0.602

Item: DGQVNYEGFVQ [CALM1_Y139_E141G] | phosphorylation enrichment: 1.31

// recorded phosphorylation enrichment for KVGNGYISAAE [CALM2_Y100_D96V] : 0.4

Value of phosphorylation enrichment reported for the sequence PSTYRYERGSR [INPPL1_Y663_P659S] is 0.663

Cited source: the supplement of paper PMC10065799
